# Test system: SKBR3 (breast cancer tissue)
# experimental_protocol: cells
# Type: cell-based
# measurement_context: CCK8, 48 h; Table 1
Where a SMILES comes first, the peptide text is derived from it. The star is where a group is joined. NEt(2-(20S-CPT-7-yl)ethyl) = CCN(CCc1c2c(nc3ccccc13)-c1cc3c(c(=O)n1C2)COC(=O)[C@]3(O)CC)*; Belotecan = CC[C@@]1(O)C(=O)OCc2c1cc1n(c2=O)Cc2c-1nc1ccccc1c2CCN(C(C)C)*; X6 = CCCCCN(CCc1c2c(nc3ccccc13)-c1cc3c(c(=O)n1C2)COC(=O)[C@]3(O)CC)*; X8 = CC[C@@]1(O)C(=O)OCc2c1cc1n(c2=O)Cc2c-1nc1ccccc1c2CCN(C1CCCC1)*; X1 = CC[C@@]1(O)C(=O)OCc2c1cc1n(c2=O)Cc2c-1nc1ccccc1c2CCN(C1CCC1)*; X4 = CCCN(CCc1c2c(nc3ccccc13)-c1cc3c(c(=O)n1C2)COC(=O)[C@]3(O)CC)*; X3 = CC[C@@]1(O)C(=O)OCc2c1cc1n(c2=O)Cc2c-1nc1ccccc1c2CCN(C1CC1)*; X7 = CC[C@@]1(O)C(=O)OCc2c1cc1n(c2=O)Cc2c-1nc1ccccc1c2CCN(C)*; Propanoyl(3-maleimido) = O=C1C=CC(=O)N1CCC(=O)*; PEG6 = NCCOCCOCCOCCOCCOCCOCCC(=O)O
quantity_kind: IC50 SKBR3 (breast cancer tissue)
Write the quantity with the unit trailing the number.

Illustrative cases are given below, each with its answer.
{"compound": "CC[C@@]1(O)C(=O)OCc2c1cc1n(c2=O)Cc2c-1nc1ccccc1c2CCN(C(=O)CNC(=O)[C@H](Cc1ccccc1)NC(=O)CNC(=O)CNC(=O)CCOCCOCCOCCOCCOCCOCCNC(=O)CCN1C(=O)C=CC1=O)C1CCC1 [MI-6PEG-GGFG-D7] ({Propanoyl(3-maleimido)-PEG6}-GGFG-X1)", "IC50 SKBR3 (breast cancer tissue)": "2.40 µg/mL"}
{"compound": "CC[C@@]1(O)C(=O)OCc2c1cc1n(c2=O)Cc2c-1nc1ccccc1c2CCN(C(=O)CNC(=O)[C@H](CC(N)=O)NC(=O)[C@H](C)NC(=O)[C@H](C)NC(=O)CCOCCOCCOCCOCCOCCOCCNC(=O)CCN1C(=O)C=CC1=O)C1CC1 [MI-6PEG-AANG-D6] ({Propanoyl(3-maleimido)-PEG6}-AANG-X3)", "IC50 SKBR3 (breast cancer tissue)": "1.81 µg/mL"}
{"compound": "CC[C@@]1(O)C(=O)OCc2c1cc1n(c2=O)Cc2c-1nc1ccccc1c2CCN(C)C(=O)CNC(=O)[C@H](Cc1ccccc1)NC(=O)CNC(=O)CNC(=O)CCOCCOCCOCCOCCOCCOCCNC(=O)CCN1C(=O)C=CC1=O [MI-6PEG-GGFG-D1] ({Propanoyl(3-maleimido)-PEG6}-GGFG-X7)", "IC50 SKBR3 (breast cancer tissue)": "16.49 µg/mL"}
{"compound": "CC[C@@]1(O)C(=O)OCc2c1cc1n(c2=O)Cc2c-1nc1ccccc1c2CCNC1CCC1", "IC50 SKBR3 (breast cancer tissue)": "0.016 µg/mL"}
{"compound": "CCCNCCc1c2c(nc3ccccc13)-c1cc3c(c(=O)n1C2)COC(=O)[C@]3(O)CC", "IC50 SKBR3 (breast cancer tissue)": "0.049 µg/mL"}
{"compound": "CCNCCc1c2c(nc3ccccc13)-c1cc3c(c(=O)n1C2)COC(=O)[C@]3(O)CC [D2]", "IC50 SKBR3 (breast cancer tissue)": "0.036 µg/mL"}

## Input Which measured IC50 SKBR3 (breast cancer tissue) value corresponds to CCCN(CCc1c2c(nc3ccccc13)-c1cc3c(c(=O)n1C2)COC(=O)[C@]3(O)CC)C(=O)CNC(=O)[C@H](CC(N)=O)NC(=O)[C@H](C)NC(=O)[C@H](C)NC(=O)CCOCCOCCOCCOCCOCCOCCNC(=O)CCN1C(=O)C=CC1=O [MI-6PEG-AANG-D3] ({Propanoyl(3-maleimido)-PEG6}-AANG-X4) ?
## Output 2.42 µg/mL

## Input Which measured IC50 SKBR3 (breast cancer tissue) value corresponds to CC[C@@]1(O)C(=O)OCc2c1cc1n(c2=O)Cc2c-1nc1ccccc1c2CCN(C(=O)CNC(=O)[C@H](Cc1ccccc1)NC(=O)CNC(=O)CNC(=O)CCOCCOCCOCCOCCOCCOCCNC(=O)CCN1C(=O)C=CC1=O)C1CC1 [MI-6PEG-GGFG-D6] ({Propanoyl(3-maleimido)-PEG6}-GGFG-X3) ?
## Output 2.30 µg/mL

## Input Which measured IC50 SKBR3 (breast cancer tissue) value corresponds to CC[C@@]1(O)C(=O)OCc2c1cc1n(c2=O)Cc2c-1nc1ccccc1c2CCN(C(=O)CNC(=O)[C@H](Cc1ccccc1)NC(=O)CNC(=O)CNC(=O)CCOCCOCCOCCOCCOCCOCCNC(=O)CCN1C(=O)C=CC1=O)C(C)C [MI-6PEG-GGFG-Belotecan] ({Propanoyl(3-maleimido)-PEG6}-GGFG-Belotecan) ?
## Output 6.15 µg/mL

## Input Which measured IC50 SKBR3 (breast cancer tissue) value corresponds to CC[C@@]1(O)C(=O)OCc2c1cc1n(c2=O)Cc2c-1nc1ccccc1c2CCN(C(=O)CNC(=O)[C@H](Cc1ccccc1)NC(=O)CNC(=O)CNC(=O)CCOCCOCCOCCOCCOCCOCCNC(=O)CCN1C(=O)C=CC1=O)C1CCCC1 [MI-6PEG-GGFG-D8] ({Propanoyl(3-maleimido)-PEG6}-GGFG-X8) ?
## Output 11.26 µg/mL

## Input Which measured IC50 SKBR3 (breast cancer tissue) value corresponds to CC[C@@]1(O)C(=O)OCc2c1cc1n(c2=O)Cc2c-1nc1ccccc1c2CCNC1CC1 ?
## Output 0.0038 µg/mL

## Input Which measured IC50 SKBR3 (breast cancer tissue) value corresponds to CC[C@@]1(O)C(=O)OCc2c1cc1n(c2=O)Cc2c-1nc1ccccc1c2CCNC [D1] ?
## Output 0.050 µg/mL

## Input Which measured IC50 SKBR3 (breast cancer tissue) value corresponds to CCN(CCc1c2c(nc3ccccc13)-c1cc3c(c(=O)n1C2)COC(=O)[C@]3(O)CC)C(=O)CNC(=O)[C@H](CCCCN)NC(=O)[C@H](C)NC(=O)[C@H](C)NC(=O)CCOCCOCCOCCOCCOCCOCCNC(=O)CCN1C(=O)C=CC1=O [MI-6PEG-AAKG-D2] ({Propanoyl(3-maleimido)-PEG6}-AAKG-{NEt(2-(20S-CPT-7-yl)ethyl)}) ?
## Output 2.62 µg/mL

## Input Which measured IC50 SKBR3 (breast cancer tissue) value corresponds to CCCCCN(CCc1c2c(nc3ccccc13)-c1cc3c(c(=O)n1C2)COC(=O)[C@]3(O)CC)C(=O)CNC(=O)[C@H](CC(N)=O)NC(=O)[C@H](C)NC(=O)[C@H](C)NC(=O)CCOCCOCCOCCOCCOCCOCCNC(=O)CCN1C(=O)C=CC1=O [MI-6PEG-AANG-D4] ({Propanoyl(3-maleimido)-PEG6}-AANG-X6) ?
## Output 4.54 µg/mL
